The origin of these recorded values is paper PMC5040732.

Test: isolated perfused respiring rat lung (IPRLu) model, intratracheal instillation
Details: male, CD, rat, isolated perfused respiring rat lung (IPRLu), lungs in situ, other: intratracheal instillation, 100 μL, pH 7.4
QUANTITY MEASURED: recovery at 20 min (%)

Consider the reported recovery at 20 min for these compounds:
| COMPOUND | UNIT OF MEASUREMENT | MEASURED |
| --- | --- | --- |
| CC(C)(C)NCC(O)c1ccc(O)c(CO)c1 (stereo not shown) | % | 78 |
| N=C(N)NC(=O)c1nc(Cl)c(N)nc1N [Amiloride] | % | 81 |
| CCc1cc2c(cc1CC)CC(NC[C@H](O)c1ccc(O)c3[nH]c(=O)ccc13)C2 | % | 91 |

[1] OCc1cc(C(O)CNCCCCCCOCCCCc2ccccc2)ccc1O (stereo not shown)
[2] CC1(C)O[C@@H]2C[C@H]3[C@@H]4C[C@H](F)C5=CC(=O)C=C[C@]5(C)[C@H]4[C@@H](O)C[C@]3(C)[C@]2(C(=O)CO)O1 [Flunisolide]
Exercise: Problem: Given the entries 1 and 2 , determine which has the lower reported recovery at 20 min. // output: label of the selected item
Key: 1
(1: 69%, 2: 139%)

###

Assay: % of dose in solution in the dose formulation (dose analysis pre- and post-centrifugation)
Type: physicochemical
Conditions: aqueous dose formulation
QUANTITY MEASURED: % Dose in solution (%)

Consider the reported % Dose in solution for these molecules:
| MOLECULE | % Dose in solution [%] |
| --- | --- |
| CCN(CC)CC(=O)Nc1c(C)cccc1C [Lidocaine] | 100 |
| N=C(N)NC(=O)c1nc(Cl)c(N)nc1N [Amiloride] | 100 |

[A] CC(C)(O)c1ccccc1CC[C@@H](SCC1(CC(=O)O)CC1)c1cccc(/C=C/c2ccc3ccc(Cl)cc3n2)c1 [Montelukast]
[B] CC1(C)O[C@@H]2C[C@H]3[C@@H]4C[C@H](F)C5=CC(=O)C=C[C@]5(C)[C@H]4[C@@H](O)C[C@]3(C)[C@]2(C(=O)CO)O1 [Flunisolide]
Exercise: Problem: Given the entries A and B , determine which has the lower reported % Dose in solution. // output: label of the selected item
Key: B

###

Test: isolated perfused respiring rat lung (IPRLu) model, intratracheal instillation
Settings: solubilised dose in perfusate at 20 mins; mean (n = 2), range in brackets
QUANTITY MEASURED: %SDiP

Consider the reported %SDiP for these compounds:
| COMPOUND | %SDiP |
| --- | --- |
| CCCc1c2oc(C(=O)O)cc(=O)c2cc2c(=O)cc(C(=O)O)n(CC)c12 | 125 (83–166) % |
| OCc1cc(C(O)CNCCCCCCOCCCCc2ccccc2)ccc1O (stereo not shown) | 41 (16–66) % |
| C=CC[C@@H]1/C=C(\C)C[C@H](C)C[C@H](OC)[C@H]2O[C@@](O)(C(=O)C(=O)N3CCCC[C@H]3C(=O)O[C@H](/C(C)=C/[C@@H]3CC[C@@H](O)[C@H](OC)C3)[C@H](C)[C@@H](O)CC1=O)[C@H](C)C[C@@H]2OC | 178 (176–180) % |
| COc1ccc(C[C@@H](C)NC[C@H](O)c2ccc(O)c(NC=O)c2)cc1.COc1ccc(C[C@@H](C)NC[C@H](O)c2ccc(O)c(NC=O)c2)cc1.O=C(O)/C=C/C(=O)O [Formoterol Fumerate] | 47 (42–52) % |
| CCc1cc2c(cc1CC)CC(NC[C@H](O)c1ccc(O)c3[nH]c(=O)ccc13)C2 | 12 (12) % |

Exercise: Which %SDiP value is on record for CCCC1O[C@@H]2C[C@H]3[C@@H]4CCC5=CC(=O)C=C[C@]5(C)[C@H]4[C@@H](O)C[C@]3(C)[C@]2(C(=O)CO)O1 (stereo partly shown) [Budesonide] ?
Key: 551 (540–561) %

Exercise: Which %SDiP value is on record for CC1(C)O[C@@H]2C[C@H]3[C@@H]4C[C@H](F)C5=CC(=O)C=C[C@]5(C)[C@H]4[C@@H](O)C[C@]3(C)[C@]2(C(=O)CO)O1 [Flunisolide] ?
Key: 96 (66–126) %

###

Assay: isolated perfused respiring rat lung (IPRLu) model, intratracheal instillation
Details: total dose in perfusate at 20 mins; mean (n = 2), range in brackets
QUANTITY MEASURED: %TDiP

Exercise: Which %TDiP value is on record for CC(=O)N[C@H]1[C@H]([C@H](O)[C@H](O)CO)OC(C(=O)O)=C[C@@H]1N=C(N)N [Zanamivir] ?
Key: 100 (100–100) %

Exercise: Which %TDiP value is on record for CCC(=O)O[C@]1(C(=O)SCF)[C@H](C)C[C@H]2[C@@H]3C[C@H](F)C4=CC(=O)C=C[C@]4(C)[C@@]3(F)[C@@H](O)C[C@@]21C [Fluticasone Propionate] ?
Key: 10 (10) %

Exercise: Which %TDiP value is on record for C[C@@H]1C[C@H]2[C@@H]3C[C@H](F)C4=CC(=O)C=C[C@]4(C)[C@@]3(F)[C@@H](O)C[C@]2(C)[C@@]1(OC(=O)c1ccco1)C(=O)SCF [Fluticasone Furoate] ?
Key: 10 (7–12) %

Exercise: Which %TDiP value is on record for CC1(C)O[C@@H]2C[C@H]3[C@@H]4C[C@H](F)C5=CC(=O)C=C[C@]5(C)[C@H]4[C@@H](O)C[C@]3(C)[C@]2(C(=O)CO)O1 [Flunisolide] ?
Key: 41 (28–53) %

Exercise: Which %TDiP value is on record for CCCc1c2oc(C(=O)O)cc(=O)c2cc2c(=O)cc(C(=O)O)n(CC)c12 [Nedocromil] ?
Key: 32 (23–40) %

###

Assay: isolated perfused respiring rat lung (IPRLu) model, intratracheal instillation
Conditions: male, CD, rat, other: intratracheal instillation, 100 μL, pH 7.4
QUANTITY MEASURED: half-life (min)

Consider the reported half-life for these molecules:
| MOLECULE | UNIT OF MEASUREMENT | half-life |
| --- | --- | --- |
| CCCc1c2oc(C(=O)O)cc(=O)c2cc2c(=O)cc(C(=O)O)n(CC)c12 | min | 32 |
| CCC(=O)O[C@]1(C(=O)SCF)[C@H](C)C[C@H]2[C@@H]3C[C@H](F)C4=CC(=O)C=C[C@]4(C)[C@@]3(F)[C@@H](O)C[C@@]21C [Fluticasone Propionate] | min | 115 |

[I] C[C@@H]1C[C@H]2[C@@H]3C[C@H](F)C4=CC(=O)C=C[C@]4(C)[C@@]3(F)[C@@H](O)C[C@]2(C)[C@@]1(OC(=O)c1ccco1)C(=O)SCF [Fluticasone Furoate]
[II] CC(C)(O)c1ccccc1CC[C@@H](SCC1(CC(=O)O)CC1)c1cccc(/C=C/c2ccc3ccc(Cl)cc3n2)c1
Exercise: Please tell me which of the two, I or II , has the higher reported half-life value. // output: label of the selected item
Key: I
(I: 153 min, II: 42 min)

###

Test: isolated perfused respiring rat lung (IPRLu) model, intratracheal instillation
Conditions: male, CD, rat, other: intratracheal instillation, 100 μL, pH 7.4
Method: The IPRLu model, including surgery, dosing and sample collection, was performed by the Laboratory Animal Sciences department at GSK. […] The cumulative amount of parent compound crossing the lung into the perfusate by the end of the 20 minute experiment was expressed as % of the total dose or as % of the dose originally in solution (solubilised dose). […]
QUANTITY MEASURED: half-life (min)

Consider the reported half-life for these compounds:
| COMPOUND | half-life / min |
| --- | --- |
| CCCC1O[C@@H]2C[C@H]3[C@@H]4CCC5=CC(=O)C=C[C@]5(C)[C@H]4[C@@H](O)C[C@]3(C)[C@]2(C(=O)CO)O1 (some centres unmarked) [Budesonide] | 3.3 |
| C=CC[C@@H]1/C=C(\C)C[C@H](C)C[C@H](OC)[C@H]2O[C@@](O)(C(=O)C(=O)N3CCCC[C@H]3C(=O)O[C@H](/C(C)=C/[C@@H]3CC[C@@H](O)[C@H](OC)C3)[C@H](C)[C@@H](O)CC1=O)[C@H](C)C[C@@H]2OC | 28 |
| OCc1cc(C(O)CNCCCCCCOCCCCc2ccccc2)ccc1O (centres unmarked) | 146 |

[I] CCc1cc2c(cc1CC)CC(NC[C@H](O)c1ccc(O)c3[nH]c(=O)ccc13)C2
[II] Nc1c(Br)cc(Br)cc1CN[C@H]1CC[C@H](O)CC1
Exercise: Problem: Given the entries I and II , determine which has the lower reported half-life. // output: label of the selected item
Key: II
(II: 39 min, I: 273 min)

###

Experiment: isolated perfused respiring rat lung (IPRLu) model, intratracheal instillation
Details: male, CD, rat, isolated perfused respiring rat lung (IPRLu), lungs in situ, other: intratracheal instillation, 100 μL, pH 7.4
QUANTITY MEASURED: recovery at 20 min (%)

| MOLECULE | MEASURED |
| --- | --- |
| Nc1c(Br)cc(Br)cc1CN[C@H]1CC[C@H](O)CC1 | 70 |
| CC(=O)N[C@H]1[C@H]([C@H](O)[C@H](O)CO)OC(C(=O)O)=C[C@@H]1N=C(N)N | 104 |
| CCCc1c2oc(C(=O)O)cc(=O)c2cc2c(=O)cc(C(=O)O)n(CC)c12 | 85 |
| CCCC1O[C@@H]2C[C@H]3[C@@H]4CCC5=CC(=O)C=C[C@]5(C)[C@H]4[C@@H](O)C[C@]3(C)[C@]2(C(=O)CO)O1 (some centres unmarked) [Budesonide] | 84 |
| CC(C)(O)c1ccccc1CC[C@@H](SCC1(CC(=O)O)CC1)c1cccc(/C=C/c2ccc3ccc(Cl)cc3n2)c1 | 77 |
